- ASSAYED_SYSTEM: T1, human PD-L1 expressed on cells (Raji cells overexpressing human PD-L1; CHO cells) (human, UniProt Q9NZQ7 19-290)
- T1 construct: whole, on cells; also called Raji-PD-L1 cells; cell surface PD-L1
- T1 sequence (Q9NZQ7 19-290): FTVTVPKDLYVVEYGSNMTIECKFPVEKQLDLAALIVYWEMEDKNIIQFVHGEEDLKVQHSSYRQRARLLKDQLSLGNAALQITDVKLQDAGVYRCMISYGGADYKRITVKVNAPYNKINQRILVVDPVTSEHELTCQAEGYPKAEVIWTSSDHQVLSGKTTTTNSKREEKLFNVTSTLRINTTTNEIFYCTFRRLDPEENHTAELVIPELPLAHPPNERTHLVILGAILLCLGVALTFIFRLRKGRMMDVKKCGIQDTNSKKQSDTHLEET
- PROTOCOL_DESCRIPTION: flow cytometry, PD-L1 expressed on CHO or Raji cells

BINDER	binding result
R21448508 (VHH, ELISA detection with anti-human IgG Fc implies a human Fc part that is not described) VHH: EVQLVESGGGLVQPGGSLRLSCAASGFTFTFYHYVMGWFRQAPGKEREFVAAISWSGSGSYYADSVKGRFTISRDNSKNTVYLQMNSLRAEDTAVYYCAADMTTRMSQDSREYDYWGQGTLVTVSS	binds
R21448502 (VHH, ELISA detection with anti-human IgG Fc implies a human Fc part that is not described) VHH: EVQLVESGGGLVQPGGSLRLSCAASGFTFTFYHYVMGWFRQAPGKEREFVAAISWSGSGSYYADSVKGRFTISRDNSKNTVYLQMNSLRAEDTAVYYCAADMTTRMSQASREYDYWGQGTLVTVSS	binds
R21560103 (VHH, ELISA detection with anti-human IgG Fc implies a human Fc part that is not described) VHH: EVQLVESGGGLVQPGGSLRLSCAASGFTFSSGTQFSDSKIDWYRQAPGKGLVWVAGIFSTGSTIYEDSVKGRFTISRDNAKNTGYLQMNSLRAEDTAVYYCRVIGIGILAWGQGTLVTVSS	binds
R21560106 (VHH, ELISA detection with anti-human IgG Fc implies a human Fc part that is not described) VHH: EVQLVESGGGLVQPGGSLRLSCAASGFTFSSGTQFSDSKADWYRQAPGKGLVWVAGIFSTGSTIYEDSVKGRFTISRDNAKNTGYLQMNSLRAEDTAVYYCRVIGRGTLAWGQGTLVTVSS	binds
